The origin of these recorded values is ChEMBL document CHEMBL1201862.

Tested on: NCI-H23
Assay: NCI tumour cell line growth inhibition, 48 h
Active and inactive are the calls of the source. Cut-off read from the data, not from the text of the source: active = GI50 up to about 1.1 µM and inactive = higher.
Could you please pick one outcome from this set? label 1 for active, label 0 for inactive

Field: example entries. Status: answers known.
INSERT INTO assay_data (molecule, class_label) VALUES
  ('O[C@H]1[C@H]2[C@H](O)C[C@H](CCOCc3ccccc3)CN2C[C@H]1O', 'label 0'),
  ('C=C[C@H]1C=Cc2c(OC)cccc2[C@@H]1COP1(=S)NC(C)C(c2ccccc2)O1 (stereo not given in full)', 'label 0');

input: Hi team, can someone confirm the assay call for CSc1nc(SC)c2c(C)cn(C3OC(C)C(O)C(O)C3O)c2n1 (stereo not given) ?
output: label 0

input: Hi team, can someone confirm the assay call for FC(F)(F)c1ccccc1C1SCC2=Nc3ccccc3CN21 (stereo not given) ?
output: label 0

input: Hi team, can someone confirm the assay call for Cc1cc(C)nc(/C(=N\NC(N)=O)C(=O)Nc2nc3ccc(C)cc3s2)c1 ?
output: label 0
